Reference for the values: patent US5464861A

molecular target: epidermal growth factor receptor tyrosine kinase (Homo sapiens, UniProt P00533); construct: A native 170,000 epidermal growth factor receptor-kinase complex from shed plasma membrane vesicles; endogenous in cells; experiment: EGF receptor tyrosine kinase assay (P^32 incorporation in GAT); type: biochemical; conditions: Table 2, EGRF-R; IC50 entries; read-out: IC50 (EGFR TK)
Sequence (P00533 25-1210): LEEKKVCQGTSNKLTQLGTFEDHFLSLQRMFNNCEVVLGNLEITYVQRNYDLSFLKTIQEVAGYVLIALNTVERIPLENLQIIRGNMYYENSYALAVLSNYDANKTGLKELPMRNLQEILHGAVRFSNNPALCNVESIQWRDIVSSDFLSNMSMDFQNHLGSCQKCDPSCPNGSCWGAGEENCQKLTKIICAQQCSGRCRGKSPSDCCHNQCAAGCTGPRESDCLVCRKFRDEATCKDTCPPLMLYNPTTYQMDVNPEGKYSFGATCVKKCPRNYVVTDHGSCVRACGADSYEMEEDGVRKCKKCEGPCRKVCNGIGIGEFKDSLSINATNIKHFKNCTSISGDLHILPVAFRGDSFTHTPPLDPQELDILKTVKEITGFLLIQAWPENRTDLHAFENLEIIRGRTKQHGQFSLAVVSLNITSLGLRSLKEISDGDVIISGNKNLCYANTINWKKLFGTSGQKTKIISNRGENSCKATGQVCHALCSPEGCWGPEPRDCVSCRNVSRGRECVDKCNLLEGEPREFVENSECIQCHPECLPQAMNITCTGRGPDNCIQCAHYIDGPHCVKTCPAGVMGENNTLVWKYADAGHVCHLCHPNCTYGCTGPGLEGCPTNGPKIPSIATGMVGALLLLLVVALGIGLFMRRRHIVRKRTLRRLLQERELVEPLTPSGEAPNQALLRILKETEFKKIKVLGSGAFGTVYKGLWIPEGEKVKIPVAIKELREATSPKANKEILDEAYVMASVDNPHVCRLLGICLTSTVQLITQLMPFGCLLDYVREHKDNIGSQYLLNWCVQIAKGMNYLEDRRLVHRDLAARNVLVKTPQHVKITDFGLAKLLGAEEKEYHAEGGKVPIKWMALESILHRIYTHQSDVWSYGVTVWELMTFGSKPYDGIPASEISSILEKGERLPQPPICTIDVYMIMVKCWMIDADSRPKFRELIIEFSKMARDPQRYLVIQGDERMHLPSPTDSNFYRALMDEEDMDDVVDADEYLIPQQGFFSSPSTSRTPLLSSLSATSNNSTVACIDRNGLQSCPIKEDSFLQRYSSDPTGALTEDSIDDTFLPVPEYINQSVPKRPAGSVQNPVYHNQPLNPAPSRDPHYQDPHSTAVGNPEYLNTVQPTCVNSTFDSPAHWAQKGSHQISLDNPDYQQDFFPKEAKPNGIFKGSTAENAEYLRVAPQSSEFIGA
Sequence (P01133 971-1023 partner limits assumed): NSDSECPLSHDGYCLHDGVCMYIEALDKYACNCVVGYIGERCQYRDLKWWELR
Endpoint Label: IC50 (µM)
Give the quantity in µM, number only.

In: Fill in the blank: the reported IC50 of `Cn1c(SSc2c(CCC(=O)O)c3ccccc3n2C)c(CCC(=O)O)c2ccccc21` is ____.
Out: 3.3

In: Fill in the blank: the reported IC50 of `O=C(CCc1c(SSc2[nH]c3ccccc3c2CCC(=O)NCc2ccc(C(=O)O)cc2)[nH]c2ccccc12)NCc1ccc(C(=O)O)cc1` is ____.
Out: 7.3

In: Fill in the blank: the reported IC50 of `CC(=O)Oc1cccc2c(C(=O)Nc3ccccc3)c(SSc3c(C(=O)Nc4ccccc4)c4cccc(OC(C)=O)c4n3C)n(C)c12` is ____.
Out: 9.4

In: Fill in the blank: the reported IC50 of `CC(=O)c1c(SSc2c(C(C)=O)c3ccccc3n2C)n(C)c2ccccc12` is ____.
Out: 5.6

In: Fill in the blank: the reported IC50 of N#CCc1c(SSc2[nH]c3ccccc3c2CC#N)[nH]c2ccccc12 [Compound 35, 2,2'-dithiobis[3-indolylacetonitrile]] is ____.
Out: 16.5

In: Fill in the blank: the reported IC50 of `Cn1c(SSc2c(C(=O)c3ccc(C(=O)O)cc3)c3ccccc3n2C)c(C(=O)c2ccc(C(=O)O)cc2)c2ccccc21` is ____.
Out: 5.5

In: Fill in the blank: the reported IC50 of `Cc1ccc2[nH]c(SSc3[nH]c4ccc(C)cc4c3CCC(=O)O)c(CCC(=O)O)c2c1` is ____.
Out: 8.4

In: Fill in the blank: the reported IC50 of NC(Cc1c(SSc2[nH]c3ccccc3c2CC(N)C(=O)NCc2ccccc2)[nH]c2ccccc12)C(=O)NCc1ccccc1 (racemic) is ____.
Out: 6

In: Fill in the blank: the reported IC50 of `Cn1c(SSc2c(C(=O)Nc3ccccc3)c3ccccc3n2C)c(C(=O)Nc2ccccc2)c2ccccc21` is ____.
Out: 8.6

In: Fill in the blank: the reported IC50 of CN1C(=S)C(C(=O)c2ccc(C(=O)O)cc2)c2ccccc21 (stereo not shown) is ____.
Out: 8.7

In: Fill in the blank: the reported IC50 of `Cc1ccc2c(CCC(=O)O)c(SSc3[nH]c4cc(C)ccc4c3CCC(=O)O)[nH]c2c1` is ____.
Out: 2.9

In: Fill in the blank: the reported IC50 of CC(=O)OC(Cc1c(SSc2[nH]c3ccccc3c2CC(OC(C)=O)C(=O)NCc2ccccc2)[nH]c2ccccc12)C(=O)NCc1ccccc1 (stereo not shown) is ____.
Out: 60

In: Fill in the blank: the reported IC50 of `COC(=O)Cc1c(SSc2[nH]c3ccccc3c2CC(=O)OC)[nH]c2ccccc12` is ____.
Out: 17.8

In: Fill in the blank: the reported IC50 of O=C(CC1C(=S)Nc2ccccc21)NCc1ccccc1 (stereo not shown) is ____.
Out: 25

In: Fill in the blank: the reported IC50 of `CCOC(=O)Cc1c(SSc2c(CC(=O)OCC)c3ccccc3n2C)n(C)c2ccccc12` is ____.
Out: 39

In: Fill in the blank: the reported IC50 of `NC(=O)CCc1c(SSc2[nH]c3ccccc3c2CCC(N)=O)[nH]c2ccccc12` is ____.
Out: 16

In: Fill in the blank: the reported IC50 of NC(=O)CCC1C(=S)Nc2ccccc21 (stereo not shown) [Compound 14, 3-(2-thioxo-3-indolinyl)propanamide] is ____.
Out: 22

In: Fill in the blank: the reported IC50 of O=C(O)Cc1c(SSc2[nH]c3ccccc3c2CC(=O)O)[nH]c2ccccc12 [Compound 29, bis[indolyl-3-acetic acid-(2)] disulfide] is ____.
Out: 8.3

In: Fill in the blank: the reported IC50 of `Cn1c(SSc2c(C(N)=O)c3ccccc3n2C)c(C(N)=O)c2ccccc21` is ____.
Out: 4.7
